System: normal rats
Experiment: Effect on blood pressure of normal rats by single oral administration
Assay type: in vivo, Wistar rats
Details: Rattus norvegicus, po, 8 h; 2.0 mg/kg p.o., single, normal rats; read-out: blood pressure reduction at 8 h after the administration
As shown below, each of these compounds has a reported inhibition in vivo at 2 mg/kg value.
Reported property: inhibition in vivo at 2 mg/kg

• CCOc1nc2cccc(C(=O)OCc3oc(=O)c(=O)oc3C)c2n1Cc1ccc(-c2ccccc2-c2noc(=O)[nH]2)cc1 [QR01014] = 4.6%
• CCOc1nc2cccc(C(=O)OC3COC4C(O[N+](=O)[O-])COC34)c2n1Cc1ccc(-c2ccccc2-c2noc(=O)[nH]2)cc1 (stereo not shown) [QR01007] = 3.7%
• CCOc1nc2cccc(C(=O)OCOC(=O)C(C)(C)C)c2n1Cc1ccc(-c2ccccc2-c2noc(=O)[nH]2)cc1 [QR01005] = 4.8%
• CCOc1nc2cccc(C(=O)OC(C)OC(=O)OCc3no[n+]([O-])c3C)c2n1Cc1ccc(-c2ccccc2-c2noc(=O)[nH]2)cc1 (stereo not shown) [QR01021] = 2.8%
• CCOc1nc2cccc(C(=O)OCc3c(-c4ccccc4)no[n+]3[O-])c2n1Cc1ccc(-c2ccccc2-c2noc(=O)[nH]2)cc1 [QR01009] = 4.8%
• CCOc1nc2cccc(C(=O)OC(OC(=O)OCc3nc(C)c(C)nc3C)C(C)C)c2n1Cc1ccc(-c2ccccc2-c2noc(=O)[nH]2)cc1 (stereo not shown) [QR01027] = 2.8%
• CCOc1nc2cccc(C(=O)ONC(=N)Nc3ccccc3)c2n1Cc1ccc(-c2ccccc2-c2noc(=O)[nH]2)cc1 [QR01012] = 4.6%
